System: Candida tropicalis
Experiment: Antimicrobial activity against Candida tropicalis isolate 15 after 48 hrs by microdilution broth method
Format: functional
Conditions: isolate 15, 48 h
OUTCOME MEASURE: MIC (µg/mL)
Quick reminder: number only, in µg/mL, skip the unit.

MOLECULE: Cc1nn(C)c(-c2cccs2)c1/[N+]([O-])=N/C#N
REPORTED MEASUREMENT: 64

MOLECULE: CC[C@@H]([C@H](C)O)n1ncn(-c2ccc(N3CCN(c4ccc(OC[C@@H]5CO[C@@](Cn6cncn6)(c6ccc(F)cc6F)C5)cc4)CC3)cc2)c1=O [POSACONAZOLE]
REPORTED MEASUREMENT: 0.25

MOLECULE: C[C@@H]1[C@H](O)[C@@H](C)/C=C/C=C/C=C/C=C/C=C/C=C/C=C/[C@H](O[C@@H]2O[C@H](C)[C@@H](O)[C@H](N)[C@@H]2O)C[C@@H]2O[C@](O)(C[C@@H](O)C[C@@H](O)[C@H](O)CC[C@@H](O)C[C@@H](O)CC(=O)O[C@H]1C)C[C@H](O)[C@H]2C(=O)O [AMPHOTERICIN B]
REPORTED MEASUREMENT: 1

Task item: # query: MIC of entry Cc1c(/[N+]([O-])=N/C#N)c(-c2ccco2)nn1C
Reply: 128

Task item: # query: MIC of entry OC(Cn1cncn1)(Cn1cncn1)c1ccc(F)cc1F [FLUCONAZOLE]
Reply: 1

Task item: # query: MIC of entry C[C@@H](c1ncncc1F)[C@](O)(Cn1cncn1)c1ccc(F)cc1F [VORICONAZOLE]
Reply: 0.06

----------
Tested on: Nakaseomyces glabratus
Experiment: Antimicrobial activity against Candida glabrata isolate 46 after 48 hrs by microdilution broth method
Type: functional
OUTCOME MEASURE: MIC (µg/mL)
Quick reminder: number only, in µg/mL, skip the unit.

Observe how each entry below is paired with its result.
STRUCTURE: C[C@@H](c1ncncc1F)[C@](O)(Cn1cncn1)c1ccc(F)cc1F
MIC (µg/mL): 0.25

STRUCTURE: OC(Cn1cncn1)(Cn1cncn1)c1ccc(F)cc1F
MIC (µg/mL): 16

STRUCTURE: Cc1nn(C)c(C)c1/[N+]([O-])=N/C#N
MIC (µg/mL): 64

STRUCTURE: Cc1cc(-c2c(/[N+]([O-])=N/C#N)c(C)nn2C)no1
MIC (µg/mL): 128

STRUCTURE: Cc1cc(-c2nn(C)c(C)c2/[N+]([O-])=N/C#N)on1
MIC (µg/mL): 128

STRUCTURE: Cc1c(/[N+]([O-])=N/C#N)c(-c2ccccn2)nn1C
MIC (µg/mL): 64

STRUCTURE: Cc1c(/[N+]([O-])=N/C#N)c(-c2ccco2)nn1C
MIC (µg/mL): 1

Task item: # query: MIC of entry Cc1cc(-c2nn(C)c(C)c2/[N+]([O-])=N/C#N)no1
Reply: 128

----------
Test system: Pichia kudriavzevii
Assay: Antimicrobial activity against Candida krusei ATCC 6258 after 48 hrs by microdilution broth method
Type: functional
Conditions: ATCC 6258, 48 h
MIC listing for selected compounds.

COMPOUND: Cc1ccc(S(=O)(=O)/N=[N+](\[O-])c2c(-c3cccs3)nn(C)c2C)cc1
SYSTEM NAME: Pichia kudriavzevii
MIC: > 128 µg/mL

Task item: # query: MIC of entry Cc1c(/[N+]([O-])=N/C#N)c(-c2ccco2)nn1C
Reply: 1 µg/mL

Task item: # query: MIC of entry Cc1c(/[N+]([O-])=N/C(N)=O)c(-c2cccs2)nn1C
Reply: > 128 µg/mL

Task item: # query: MIC of entry OC(Cn1cncn1)(Cn1cncn1)c1ccc(F)cc1F [FLUCONAZOLE]
Reply: 32 µg/mL

Task item: # query: MIC of entry CC[C@@H]([C@H](C)O)n1ncn(-c2ccc(N3CCN(c4ccc(OC[C@@H]5CO[C@@](Cn6cncn6)(c6ccc(F)cc6F)C5)cc4)CC3)cc2)c1=O [POSACONAZOLE]
Reply: 0.25 µg/mL

Task item: # query: MIC of entry Cc1nn(C)c(C)c1/[N+]([O-])=N/C#N
Reply: 16 µg/mL

Task item: # query: MIC of entry Cc1cc(-c2nn(C)c(C)c2/[N+]([O-])=N/C#N)no1
Reply: 64 µg/mL

Task item: # query: MIC of entry Cc1c(/[N+]([O-])=N/C#N)c(-c2ccccn2)nn1C
Reply: 16 µg/mL

Task item: # query: MIC of entry Cc1c(/[N+]([O-])=N/C#N)c(-c2cccs2)nn1C
Reply: 0.5 µg/mL

Task item: # query: MIC of entry Cc1cc(-c2nn(C)c(C)c2/[N+]([O-])=N/C#N)nn1C
Reply: > 128 µg/mL

----------
System: Candida albicans
Test: Antimicrobial activity against Candida albicans isolate 47 after 48 hrs by microdilution broth method
Format: functional
Conditions: isolate 47, 48 h
OUTCOME MEASURE: MIC (µg/mL)
Quick reminder: number only, in µg/mL, skip the unit.

Observe how each entry below is paired with its result.
MOLECULE: CC[C@@H]([C@H](C)O)n1ncn(-c2ccc(N3CCN(c4ccc(OC[C@@H]5CO[C@@](Cn6cncn6)(c6ccc(F)cc6F)C5)cc4)CC3)cc2)c1=O [POSACONAZOLE]
SYSTEM NAME: Candida albicans
MEASUREMENT UNIT: µg/mL
MIC: 0.016
//
MOLECULE: C[C@@H](c1ncncc1F)[C@](O)(Cn1cncn1)c1ccc(F)cc1F [VORICONAZOLE]
SYSTEM NAME: Candida albicans
MEASUREMENT UNIT: µg/mL
MIC: 0.008
//
MOLECULE: OC(Cn1cncn1)(Cn1cncn1)c1ccc(F)cc1F [FLUCONAZOLE]
SYSTEM NAME: Candida albicans
MEASUREMENT UNIT: µg/mL
MIC: 0.25
//
MOLECULE: Cc1nn(C)c(C)c1/[N+]([O-])=N/C#N
SYSTEM NAME: Candida albicans
MEASUREMENT UNIT: µg/mL
MIC: 32

Task item: Request - read-out MIC | tested on Candida albicans | molecule C[C@@H]1[C@H](O)[C@@H](C)/C=C/C=C/C=C/C=C/C=C/C=C/C=C/[C@H](O[C@@H]2O[C@H](C)[C@@H](O)[C@H](N)[C@@H]2O)C[C@@H]2O[C@](O)(C[C@@H](O)C[C@@H](O)[C@H](O)CC[C@@H](O)C[C@@H](O)CC(=O)O[C@H]1C)C[C@H](O)[C@H]2C(=O)O [AMPHOTERICIN B]
Reply: 1

Task item: Request - read-out MIC | tested on Candida albicans | molecule Cc1c(/[N+]([O-])=N/C#N)c(-c2ccccn2)nn1C
Reply: 128

Task item: Request - read-out MIC | tested on Candida albicans | molecule Cc1nn(C)c(-c2cccs2)c1/[N+]([O-])=N/C#N
Reply: 4

Task item: Request - read-out MIC | tested on Candida albicans | molecule Cc1c(/[N+]([O-])=N/C#N)c(-c2ccco2)nn1C
Reply: 4

Task item: Request - read-out MIC | tested on Candida albicans | molecule Cc1cc(-c2nn(C)c(C)c2/[N+]([O-])=N/C#N)on1
Reply: 128

Task item: Request - read-out MIC | tested on Candida albicans | molecule Cc1c(/[N+]([O-])=N/C#N)c(-c2cccs2)nn1C
Reply: 1

Task item: Request - read-out MIC | tested on Candida albicans | molecule Cc1cc(-c2c(/[N+]([O-])=N/C#N)c(C)nn2C)no1
Reply: 128

----------
Test system: Cryptococcus deneoformans
Experiment: Antimicrobial activity against Cryptococcus neoformans var. neoformans isolate 14 after 48 hrs by microdilution broth method
Format: functional
Settings: isolate 14, 48 h
OUTCOME MEASURE: MIC (µg/mL)
Quick reminder: number only, in µg/mL, skip the unit.

Observe how each entry below is paired with its result.
STRUCTURE: Cc1cc(-c2nn(C)c(C)c2/[N+]([O-])=N/C#N)on1
OUTCOME MEASURE: MIC
MEASUREMENT UNIT: µg/mL
REPORTED MEASUREMENT: 2

STRUCTURE: Cc1cc(-c2nn(C)c(C)c2/[N+]([O-])=N/C#N)no1
OUTCOME MEASURE: MIC
MEASUREMENT UNIT: µg/mL
REPORTED MEASUREMENT: 4

STRUCTURE: Cc1cc(-c2c(/[N+]([O-])=N/C#N)c(C)nn2C)no1
OUTCOME MEASURE: MIC
MEASUREMENT UNIT: µg/mL
REPORTED MEASUREMENT: 8

Shift focus to the following entry.
Task item: # query: MIC of entry Cc1nn(C)c(C)c1/[N+]([O-])=N/C#N
Reply: 32
